Target: human mAChR M4 (Homo sapiens, UniProt P08173)
Construct: expressed in transfected cells
Sequence (P08173 1-479): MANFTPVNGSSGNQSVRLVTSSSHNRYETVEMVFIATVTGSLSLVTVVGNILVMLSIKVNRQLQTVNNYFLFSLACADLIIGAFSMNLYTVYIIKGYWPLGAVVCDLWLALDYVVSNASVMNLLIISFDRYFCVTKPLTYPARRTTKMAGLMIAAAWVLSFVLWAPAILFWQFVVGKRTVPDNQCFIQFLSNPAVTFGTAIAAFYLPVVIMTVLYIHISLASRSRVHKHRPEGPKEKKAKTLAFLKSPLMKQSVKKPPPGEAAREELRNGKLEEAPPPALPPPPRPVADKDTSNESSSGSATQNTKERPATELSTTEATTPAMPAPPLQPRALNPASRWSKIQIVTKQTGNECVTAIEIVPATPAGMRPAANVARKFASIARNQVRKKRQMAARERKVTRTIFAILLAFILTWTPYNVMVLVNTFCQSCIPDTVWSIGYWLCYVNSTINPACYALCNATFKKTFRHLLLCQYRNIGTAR
Assay: mAChR M4 cell-based functional assay (calcium mobilization, CHO-K1 hM4-Gqi5 cells)
Details: positive allosteric modulator activity, increase in the EC20 acetylcholine response, CHO-K1 hM4-Gqi5 cells; read-out: Human M4 EC50
pEC50: −log10 of the molar value.
test.readout: pEC50

                      smiles_representation  test_readout  value_observed
0  Cc1c(C#N)nnc(N2CCc3ncc(-c4ccncc4)cc3C2)c1C         pEC50            6.43
1  Cc1c(C(=O)NCc2csc3ccccc23)nnc(N2CCc3ncc(C(F)(F)F)cc3C2)c1C         pEC50            6.37
2  [2H]C([2H])([2H])c1cnc2c(c1)CN(c1nnc(C(=O)N3CC4(COC4)C3)cc1C)CC2         pEC50            6.96
3  Cc1cc(C#N)cnc1N1CCc2ncc(-c3c(C)nn(C)c3C)cc2C1         pEC50            6.85
